# Assay overview: in vitro
# Measurement context: human, Cell Viability
Measurement label: viability at 24 h, 0.1 % (%)
Provide only the numeric value, understood in %.

Please report the recorded viability at 24 h, 0.1 % for OCc1ccccc1 .
48

====

# Assay overview: in vitro
# Measurement context: human, Cell Viability
Measurement label: viability at 48 h, 0.05 %
Provide the measurement as a number trailed by its unit.

Please report the recorded viability at 48 h, 0.05 % for OCc1ccccc1 [Benzyl alcohol, benzyl alcohol] .
60.9%

====

# Assay overview: in vitro
# Measurement context: human, Cell Viability, Mean (%)
# Text: Cell viability and cell morphology were examined to evaluate the toxicity of excipients on retinal pigment epithelial cells. […] To assess cell viability, mitochondrial metabolism was quantified through conventional colorometric assays (i.e., the MTT assay). […] A resulting purple solution is spectrophotometrically measured. Cell viability is relative to amount of formazan and calculated as a percentage of remaining treated compared to non-treated cells. […]
Measurement label: viability at 48 h, 0.5 % (%)
Provide only the numeric value, understood in %.

Please report the recorded viability at 48 h, 0.5 % for OCc1ccccc1 [Benzyl alcohol, benzyl alcohol] .
1.5

====

# Assay overview: in vitro
# Measurement context: human, Cell Viability, Mean (%)
Measurement label: viability at 48 h, 0.1 %
Provide the measurement as a number trailed by its unit.

Please report the recorded viability at 48 h, 0.1 % for OCc1ccccc1 .
42%

====

# Assay overview: in vitro
# Measurement context: human, Cell Viability, Mean (%)
Measurement label: viability at 48 h, 1 % (%)
Provide only the numeric value, understood in %.

Please report the recorded viability at 48 h, 1 % for OCc1ccccc1 .
1.5

====

# Assay overview: in vitro
# Measurement context: human, Cell Viability, Mean (%)
Measurement label: viability at 48 h, 0.05 % (%)
Provide only the numeric value, understood in %.

Please report the recorded viability at 48 h, 0.05 % for OCc1ccccc1 [Benzyl alcohol, benzyl alcohol] .
57.3

====

# Assay overview: in vitro
# Measurement context: human, Cell Viability, Mean (%)
Measurement label: viability at 72 h, 0.5 % (%)
Provide only the numeric value, understood in %.

Please report the recorded viability at 72 h, 0.5 % for OCc1ccccc1 .
1.1

====

# Assay overview: in vitro
# Measurement context: human, Cell Viability, Mean (%)
Measurement label: viability at 24 h, […] (%)
Provide only the numeric value, understood in %.

Please report the recorded viability at 24 h, […] for OCc1ccccc1 .
0.4
